tested-target: T1, Anti-CD28 Fab (SEQ ID NOs: 696, 697)
T1 construct: Biotinylated and captured on neutravidin coated plates in the phage ELISA
T1 sequence (VH, as listed by the source, chain 1 of 2): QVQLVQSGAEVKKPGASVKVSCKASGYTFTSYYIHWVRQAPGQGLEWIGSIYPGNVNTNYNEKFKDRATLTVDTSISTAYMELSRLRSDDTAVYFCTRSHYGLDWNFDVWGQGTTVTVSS
T1 sequence (VL, as listed by the source, chain 2 of 2): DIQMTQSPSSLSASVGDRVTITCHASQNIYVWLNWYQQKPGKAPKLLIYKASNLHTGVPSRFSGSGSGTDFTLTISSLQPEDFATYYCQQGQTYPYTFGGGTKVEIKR
protocol-description: phage binding ELISA; biotinylated anti-CD28 Fab on neutravidin plate, clonal phage supernatant, anti-M13 HRP detection;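 also: wells pretreated with blocking buffer, either plus or minus CD28 antigen, then given crude phage supernatant briefly without washing in between, then washed before anti-M13 HRP readout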
recorded-metric: Anti-CD28 Fab (SEQ ID NOs: 696, 697) signal
I only need the number, thanks.

Guide cases for Anti-CD28 Fab (SEQ ID NOs: 696, 697) signal, answers given:
binder | recorded-result
LCAAGATYPWPLCL [Phage-1341] | 2.39
YCMGHSHEHIWKCL [Phage-476] | 0.87

Input line: What does the record list as Anti-CD28 Fab (SEQ ID NOs: 696, 697) signal for TCSAGAAYSWPACF [Phage-1343] ?
Output line: 1.89
